- study_system: SUMO-conjugating enzyme UBC9 (Homo sapiens) (UniProt P63279)
- Sequence (P63279 whole entry, looked up): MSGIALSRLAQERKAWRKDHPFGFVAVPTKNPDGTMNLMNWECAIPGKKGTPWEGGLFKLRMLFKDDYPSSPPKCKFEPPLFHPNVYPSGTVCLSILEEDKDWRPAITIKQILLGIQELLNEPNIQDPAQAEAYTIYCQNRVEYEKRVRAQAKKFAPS
- measurement_protocol: inhibitors of in vitro SUMOylation cascade, primary screen, biochemical, HTRF, uHTS (AID 2006)
- conditions_used: HTRF SUMOylation assay, SAE1/SAE2 + UBC9, in vitro; at 35 µM; stronger effect = higher value
About 1,000 (0.34%) of roughly 290,000 compounds were called active. The full list was thinned out, with actives kept by preference.
t means recorded inhibition is 10% or above; f means it is below 10%.

[
  {
    "compound": "CCOC(=O)CN(C(=O)COc1nc(C)cc(C)c1C#N)c1ccc(Cl)cc1",
    "label": "t"
  },
  {
    "compound": "Oc1ccc(C2Nc3cccc4cccc(c34)N2)cc1",
    "label": "t"
  },
  {
    "compound": "CC(C)[C@H](NC(=O)OCc1ccccc1)C(=O)OCc1ccccc1",
    "label": "f"
  },
  {
    "compound": "COc1ccc(C(=O)Nc2ncc3c(n2)-c2ccccc2CC3)cc1",
    "label": "f"
  },
  {
    "compound": "O=C(N/N=C/c1cccc(OCc2ccccc2)c1)c1ccc(Br)o1",
    "label": "f"
  },
  {
    "compound": "O=C(NCCN1CCCC(O)C1)c1cc(COc2c(F)cccc2F)on1 (stereo not drawn)",
    "label": "f"
  },
  {
    "compound": "Cc1cccc(C(=O)Nc2ccc(Oc3cnccn3)cc2)c1",
    "label": "t"
  },
  {
    "compound": "O=C(CNC(=O)c1ccc(F)cc1)c1ccccc1",
    "label": "f"
  },
  {
    "compound": "Cc1nn(C)c(Cl)c1CN1CCC(n2nccc2NC(=O)C2CCCC2)CC1",
    "label": "f"
  },
  {
    "compound": "CC(C)NS(=O)(=O)c1ccc(OCC(=O)NC2CCCCCC2)cc1",
    "label": "f"
  },
  {
    "compound": "CCOC(=O)/C(=N\\Nc1ccccc1[N+](=O)[O-])c1csc(Nc2ccccc2)n1",
    "label": "t"
  },
  {
    "compound": "O=C(N/N=C/c1cc(Cl)cc([N+](=O)[O-])c1O)C(O)(c1ccccc1)c1ccccc1",
    "label": "f"
  },
  {
    "compound": "COc1ccc(C2NC(=O)N(C)C(C)=C2[N+](=O)[O-])cc1 (stereo not drawn)",
    "label": "f"
  },
  {
    "compound": "CSc1nnc(SCc2nc3sc(C(=O)O)c(C)c3c(=O)[nH]2)s1",
    "label": "t"
  },
  {
    "compound": "CC(=O)N/C(=N/c1nc(C)cc(C)n1)Nc1ccc(F)cc1F",
    "label": "t"
  },
  {
    "compound": "COc1ccc(CN2CCOC2=O)cc1OC",
    "label": "f"
  },
  {
    "compound": "C/C(=N/Nc1nc(-c2ccccc2)c(CC(=O)O)s1)c1ccccc1",
    "label": "f"
  },
  {
    "compound": "Cc1ccc(NC(=O)C2CCCN2S(=O)(=O)c2cccc3cccnc23)c(C)c1 (stereo not drawn)",
    "label": "f"
  },
  {
    "compound": "COCCN(CCOC)S(=O)(=O)c1ccc(C(=O)Nc2nc3c(s2)CCc2ccccc2-3)cc1",
    "label": "t"
  },
  {
    "compound": "Cc1ccc(C2Nc3cccc4cccc(c34)N2)cc1",
    "label": "f"
  },
  {
    "compound": "Cc1cc(OC(C)C(=O)NC2CC(C)(C)NC(C)(C)C2)c2c(C)cc(=O)oc2c1 (stereo not drawn)",
    "label": "t"
  },
  {
    "compound": "COC(=O)CNC(=O)c1cc(-c2ccncc2)nc2ccccc12",
    "label": "f"
  },
  {
    "compound": "Cc1ccc(C)c(SCc2nc3sc(C(=O)O)c(C)c3c(=O)[nH]2)c1",
    "label": "f"
  },
  {
    "compound": "O=[N+]([O-])c1cc(Cl)cc(/C=N/NC(=S)Nc2cc(S(=O)(=O)N3CCOCC3)ccc2Cl)c1O",
    "label": "t"
  },
  {
    "compound": "CC(C)[C@H](NC(=O)N1c2ccccc2NC(=O)[C@@H]1C(C)C)C(=O)N[C@H](C(=O)O)c1ccccc1",
    "label": "t"
  },
  {
    "compound": "CCOc1ccc(C2/C(=C(/O)c3ccc4c(c3)CC(C)O4)C(=O)C(=O)N2CCCn2ccnc2)cc1 (stereo not drawn)",
    "label": "f"
  },
  {
    "compound": "CCc1ccc(-c2cc(C(=O)NCc3ccco3)c3ccccc3n2)s1",
    "label": "t"
  }
]

---

Form field: inhibition (one value per entry).
- study_system: SUMO-conjugating enzyme UBC9 (Homo sapiens)
- measurement_protocol: inhibitors of in vitro SUMOylation cascade, primary screen, biochemical, HTRF, uHTS (AID 2006)
- conditions_used: HTRF SUMOylation assay, SAE1/SAE2 + UBC9, in vitro; at 35 µM; stronger effect = higher value
Out of some 290,000 compounds screened, about 1,000 (0.34%) were called active. Only a selection was taken, and actives are over-represented in it overall.

[
  {
    "compound": "Cc1ccc(NS(=O)(=O)c2ccc3c(c2)n(C)c(=O)c(=O)n3C)c(C)c1",
    "study_system": "SUMO-conjugating enzyme UBC9 (Homo sapiens)",
    "unit_symbol": "%",
    "inhibition": 9
  },
  {
    "compound": "CC(C)=CCCC(C)CN1CCC(n2nccc2NC(=O)c2ccccc2)CC1 (stereo not given)",
    "study_system": "SUMO-conjugating enzyme UBC9 (Homo sapiens)",
    "unit_symbol": "%",
    "inhibition": 7
  },
  {
    "compound": "CC(=O)N1c2ccc(S(=O)(=O)N3CCCC(C(=O)Nc4cccc(F)c4)C3)cc2CC1C (stereo not given)",
    "study_system": "SUMO-conjugating enzyme UBC9 (Homo sapiens)",
    "unit_symbol": "%",
    "inhibition": 12.3
  },
  {
    "compound": "COc1ccc(CCNC(=O)CCCCCNC(=O)N2CCn3c2nc2ccccc23)cc1OC",
    "study_system": "SUMO-conjugating enzyme UBC9 (Homo sapiens)",
    "unit_symbol": "%",
    "inhibition": 15.4
  },
  {
    "compound": "CCCCNC(=O)N(O)C1N(/N=C/c2ccc(N(C)C)cc2)C(=S)SC1(C)C (stereo not given)",
    "study_system": "SUMO-conjugating enzyme UBC9 (Homo sapiens)",
    "unit_symbol": "%",
    "inhibition": 6.7
  },
  {
    "compound": "COc1cc(C(=O)Nn2c(CC(C)C)nc3ccccc3c2=O)cc(OC)c1OC",
    "study_system": "SUMO-conjugating enzyme UBC9 (Homo sapiens)",
    "unit_symbol": "%",
    "inhibition": 7.6
  },
  {
    "compound": "Cc1c(-c2cccc(Cl)c2)nc2ccccc2c1C(=O)OCC(=O)N(C)C1CCS(=O)(=O)C1 (stereo not given)",
    "study_system": "SUMO-conjugating enzyme UBC9 (Homo sapiens)",
    "unit_symbol": "%",
    "inhibition": 0.4
  },
  {
    "compound": "CN(C(=O)COC(=O)c1cc(-c2ccco2)nc2ccccc12)C1CCS(=O)(=O)C1 (stereo not given)",
    "study_system": "SUMO-conjugating enzyme UBC9 (Homo sapiens)",
    "unit_symbol": "%",
    "inhibition": 51.3
  },
  {
    "compound": "CN(C(=O)COC(=O)c1nc(Cl)ccc1Cl)C1CCS(=O)(=O)C1 (stereo not given)",
    "study_system": "SUMO-conjugating enzyme UBC9 (Homo sapiens)",
    "unit_symbol": "%",
    "inhibition": -3.6
  },
  {
    "compound": "Oc1c(Cl)cc(Cl)c(Cl)c1Cc1c(O)c(Cl)cc(Cl)c1Cl",
    "study_system": "SUMO-conjugating enzyme UBC9 (Homo sapiens)",
    "unit_symbol": "%",
    "inhibition": 71.9
  }
]
